Target System: JAK2 (Homo sapiens, UniProt O60674)
Sequence (O60674 whole entry): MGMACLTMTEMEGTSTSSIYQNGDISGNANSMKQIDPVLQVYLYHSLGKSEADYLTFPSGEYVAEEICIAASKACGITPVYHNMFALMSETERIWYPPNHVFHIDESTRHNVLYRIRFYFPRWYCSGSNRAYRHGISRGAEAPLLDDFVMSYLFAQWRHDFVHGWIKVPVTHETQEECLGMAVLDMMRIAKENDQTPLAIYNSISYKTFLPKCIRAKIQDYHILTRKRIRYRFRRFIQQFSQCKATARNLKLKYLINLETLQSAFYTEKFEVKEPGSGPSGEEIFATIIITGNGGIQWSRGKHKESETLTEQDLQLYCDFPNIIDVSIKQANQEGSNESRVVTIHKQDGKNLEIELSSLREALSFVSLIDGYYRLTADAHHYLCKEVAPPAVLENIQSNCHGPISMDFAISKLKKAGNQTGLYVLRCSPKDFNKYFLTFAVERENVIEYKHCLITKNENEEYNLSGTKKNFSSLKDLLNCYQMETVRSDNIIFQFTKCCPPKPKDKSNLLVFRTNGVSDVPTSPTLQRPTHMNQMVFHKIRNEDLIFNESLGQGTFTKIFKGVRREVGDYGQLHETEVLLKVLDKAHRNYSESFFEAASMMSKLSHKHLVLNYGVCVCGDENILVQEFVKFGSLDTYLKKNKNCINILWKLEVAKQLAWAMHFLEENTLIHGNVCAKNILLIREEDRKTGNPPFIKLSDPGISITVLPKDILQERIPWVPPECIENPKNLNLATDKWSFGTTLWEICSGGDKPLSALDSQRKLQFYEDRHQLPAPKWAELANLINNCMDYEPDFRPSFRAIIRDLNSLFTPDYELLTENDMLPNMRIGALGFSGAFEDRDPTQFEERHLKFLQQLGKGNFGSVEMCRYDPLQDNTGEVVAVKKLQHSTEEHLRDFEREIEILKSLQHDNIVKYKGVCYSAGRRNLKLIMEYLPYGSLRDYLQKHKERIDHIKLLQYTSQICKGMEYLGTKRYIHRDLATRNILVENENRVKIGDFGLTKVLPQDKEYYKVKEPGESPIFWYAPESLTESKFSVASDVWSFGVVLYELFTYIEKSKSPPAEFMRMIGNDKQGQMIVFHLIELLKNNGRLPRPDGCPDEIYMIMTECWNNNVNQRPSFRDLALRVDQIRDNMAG
Protocol: SelectScreen kinase specificity survey
Particulars: estimated, abridged dose response curve, read-out: Kinase inhibitory activity EC50
For each record, write down the corresponding EC50.

# per-item lookup of EC50; items listed below
1. CN(C)CCCNc1ccc2ncn3c4ccc5[nH]ncc5c4c(=O)c1c23
2. CCN(CC)CCNc1ccc2ncn3c4ccc(O)cc4c(=O)c1c23 [Symadex, reference compound]

1. > 5 µM
2. > 5 µM

* * *

Target System: YES1 (YES) (Homo sapiens)
Sequence (P07947 whole entry): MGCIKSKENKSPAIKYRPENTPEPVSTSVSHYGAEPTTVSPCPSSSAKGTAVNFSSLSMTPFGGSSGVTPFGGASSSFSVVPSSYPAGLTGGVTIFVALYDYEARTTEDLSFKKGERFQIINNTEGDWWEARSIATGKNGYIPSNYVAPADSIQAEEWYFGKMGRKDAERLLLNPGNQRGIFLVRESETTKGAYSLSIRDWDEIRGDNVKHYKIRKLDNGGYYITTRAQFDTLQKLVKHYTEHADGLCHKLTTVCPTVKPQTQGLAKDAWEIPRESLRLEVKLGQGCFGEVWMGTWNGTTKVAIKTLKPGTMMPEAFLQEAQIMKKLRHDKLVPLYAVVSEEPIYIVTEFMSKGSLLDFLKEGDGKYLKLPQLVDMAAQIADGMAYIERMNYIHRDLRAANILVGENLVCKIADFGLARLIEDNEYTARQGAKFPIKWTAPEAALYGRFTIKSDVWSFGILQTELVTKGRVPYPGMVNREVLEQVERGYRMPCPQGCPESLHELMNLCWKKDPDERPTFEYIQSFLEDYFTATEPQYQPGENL
Protocol: SelectScreen kinase specificity survey
Particulars: estimated, abridged dose response curve, read-out: Kinase inhibitory activity EC50
Endpoint Label: pEC50
Answers are plain numbers, as −log10 of the molar value.

Query (compound): CN(C)CCCNc1ccc2ncn3c4ccc5[nH]ncc5c4c(=O)c1c23 [Compound (IV)] ; field requested: pEC50
5.80

Each recorded value in this set is attributed to patent US20100292231A1.
